Each recorded value in this set is attributed to PubChem BioAssay (NCATS).

Tested system: Rap guanine nucleotide exchange factor 3 (Homo sapiens)
Protocol details: Confirmatory qHTS for antagonist of cAMP-regulated guanine nucleotide exchange factor 3 (EPAC1) (AID 1645880); note: nearly all actives have a fitted effect of over 55% in size
Measurement conditions: EPAC1 Rap1B-BODIPY-GDP exchange, fluorescence; series mostly up to 115 µM
Inconclusive results are not listed. The source made the active and inactive calls. Calls come from the whole dose curve; as a rule, active = well fitted inhibition curve with a large enough effect; inconclusive = small, poorly fitted or top-dose-only effect; inactive = no such curve, though single readings can be large or run the other way.
Reported endpoint: outcome

Compound: Cc1cc(C)c2nccc(/C=C/c3ccc(N(C)C)cc3)c2c1
Tested system: Rap guanine nucleotide exchange factor 3 (Homo sapiens)
Reported endpoint: outcome
Recorded result: inactive
//
Compound: COc1ccc(CN2C(=O)CN(S(C)(=O)=O)CC2(C)C(=O)Nc2c(C)cccc2C)cc1OC (stereo not drawn)
Tested system: Rap guanine nucleotide exchange factor 3 (Homo sapiens)
Reported endpoint: outcome
Recorded result: inactive
//
Compound: O=C(O)c1ccc(N/N=C/c2ccc3c(c2)OCO3)cc1
Tested system: Rap guanine nucleotide exchange factor 3 (Homo sapiens)
Reported endpoint: outcome
Recorded result: inactive
